- measurement_target: C-RAF (Homo sapiens, UniProt P04049)
- Construct: purchased Reaction Biology Corporation (Malvern, Pa.), contract assay service
- Sequence (P04049 whole entry): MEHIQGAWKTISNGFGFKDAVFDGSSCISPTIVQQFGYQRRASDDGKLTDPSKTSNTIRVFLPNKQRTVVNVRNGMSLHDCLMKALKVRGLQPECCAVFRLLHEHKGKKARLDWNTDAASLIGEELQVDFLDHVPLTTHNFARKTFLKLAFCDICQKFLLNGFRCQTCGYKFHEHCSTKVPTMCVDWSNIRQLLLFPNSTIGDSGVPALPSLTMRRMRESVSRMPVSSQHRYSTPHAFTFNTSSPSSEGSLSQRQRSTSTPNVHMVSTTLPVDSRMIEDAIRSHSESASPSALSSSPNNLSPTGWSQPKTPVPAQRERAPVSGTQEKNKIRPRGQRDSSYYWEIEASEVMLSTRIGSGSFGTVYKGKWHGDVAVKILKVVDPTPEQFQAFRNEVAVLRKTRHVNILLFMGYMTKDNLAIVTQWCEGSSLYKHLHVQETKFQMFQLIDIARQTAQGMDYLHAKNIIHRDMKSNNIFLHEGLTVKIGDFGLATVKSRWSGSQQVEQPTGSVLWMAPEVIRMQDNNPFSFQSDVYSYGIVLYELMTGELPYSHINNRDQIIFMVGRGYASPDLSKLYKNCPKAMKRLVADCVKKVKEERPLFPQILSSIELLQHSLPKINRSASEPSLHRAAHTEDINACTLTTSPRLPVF
- assay_protocol: Kinase inhibition assay (Reaction Biology Corporation)
- Format: biochemical
- condition_label: Table 2; 10 μM ATP, 10-point curve
Threshold-based label: IC50 under 9 nM gives Condition met, IC50 not under 9 nM gives Condition not met.

Consider the following illustrative entries.
| line_notation | class_assignment |
| --- | --- |
| Cc1ccc(C(=O)Nc2ccc(Cl)cc2)cc1C#Cc1cnc2cccnn12 | Condition not met |
| Cc1ccc(C(=O)Nc2cc(-n3cnc(CN(C)C)c3)cc(C(F)(F)F)c2)cc1C#Cc1cnc2cccnn12 | Condition met |
| Cc1ccc(C(=O)Nc2ccc(CN3CCCC3)c(C(F)(F)F)c2)cc1C#Cc1cnc2ccccn12 | Condition not met |
| CN1CCN(Cc2ccc(NC(=O)c3cccc(C#Cc4cnc5ccccn45)c3)cc2C(F)(F)F)CC1 | Condition not met |
| Cc1ccc(C(=O)Nc2ccc(CC(=N)N)c(C(F)(F)F)c2)cc1C#Cc1cnc2cccnn12 | Condition met |
| Cc1ccc(F)c(NC(=O)c2ccc(C)c(C#Cc3cnc4cccnn34)c2)c1 | Condition met |

# TODO verify IC50 < 9 nM strictly for this compound: CN1CCN(Cc2ccc(NC(=O)c3cccc(C#Cc4cnc5cnccn45)c3)cc2Cl)CC1 Condition met

* * *

Provide the reported IC50 of each item.
- measurement_target: C-RAF (Homo sapiens, UniProt P04049)
- Construct: purchased Reaction Biology Corporation (Malvern, Pa.), contract assay service
- assay_protocol: Kinase inhibition assay (Reaction Biology Corporation)
- Assay type: biochemical
- condition_label: Table 2; 10 μM ATP, 10-point curve
Numbers only, in nM.

Some solved entries appear below for comparison.
| line_notation | measurement_target | IC50, nM |
| --- | --- | --- |
| Cc1ccc(C(=O)Nc2cccc(C(F)(F)F)c2)cc1C#Cc1cnc2cccnn12 | C-RAF (Homo sapiens, UniProt P04049) | 1.45 |
| Cc1cc(C#Cc2cnc3cccnn23)cc(C(=O)Nc2cccc(C(F)(F)F)c2)c1 | C-RAF (Homo sapiens, UniProt P04049) | 2940 |
| CC(=O)Nc1cccn2c(C#Cc3cc(C(=O)Nc4cccc(C(F)(F)F)c4)ccc3C)cnc12 | C-RAF (Homo sapiens, UniProt P04049) | 7.3 |
| Cc1ccc(C(=O)Nc2ccc(CN3CCOCC3)c(C(F)(F)F)c2)cc1C#Cc1cnc2cnccn12 | C-RAF (Homo sapiens, UniProt P04049) | 5.43 |
| Cc1ccc(NC(=O)c2ccc3ccn(C)c3c2)cc1C#Cc1cnc2cccnn12 | C-RAF (Homo sapiens, UniProt P04049) | 3.12 |
| Cc1ccc(C(=O)Nc2cc(N(C)CCO)cc(C(F)(F)F)c2)cc1C#Cc1cnc2cccnn12 | C-RAF (Homo sapiens, UniProt P04049) | 14.4 |

Let's switch to this molecule now.
Looking for the measured IC50 of CN1CCN(Cc2ccc(NC(=O)c3cncc(C#Cc4cnc5cccnn45)c3)cc2Cl)CC1 , can you help? 25.6

* * *

- measurement_target: C-RAF (Homo sapiens, UniProt P04049)
- Construct: purchased Reaction Biology Corporation (Malvern, Pa.), contract assay service
- assay_protocol: Kinase inhibition assay (Reaction Biology Corporation)
- Assay type: biochemical
- condition_label: Table 1; 10 μM ATP, 10-point curve
measure_name: IC50 (nM)
Give bare numbers, in nM.

Report IC50 for each item below.
1. Cc1ccc(NC(=O)c2ccc(CN3CCN(C)CC3)c(C(F)(F)F)c2)cc1C#Cc1cnc2cccnn12
2. CC(=O)Nc1cccn2c(C#Cc3cc(C(=O)Nc4cc(C(F)(F)F)ccn4)ccc3C)cnc12
3. Cc1ccc(C(=O)Nc2ccc(CN3CCN(C)CC3)c(C(F)(F)F)c2)cc1C#Cc1cnc2cnccn12
4. Cc1ccc(C(=O)Nc2ccc(CN3CCN(C)CC3)c(C(F)(F)F)c2)cc1C#Cc1cnc2ccccn12

12.2
2.42
2.13
26
